# System: Morganella morganii
# Assay Remarks: Compound was evaluated for inhibitory activity against PR15 Morganella morganii
# Assay type: functional
Below, each entry is listed alongside its reported MIC.
Supply the numeric figure in µM, leaving out any unit text.

[[record]]
compound = "CS(=O)(=O)Nc1cccc([C@@H](N)C(=O)N[C@@H]2C(=O)N3C(C(=O)O)=C(C(F)(F)F)CC[C@H]23)c1"
tgt = "Morganella morganii"
quantitative_result = 8

[[record]]
compound = "N[C@@H](C(=O)N[C@@H]1C(=O)N2C(C(=O)O)=C(C(F)(F)F)CC[C@H]12)c1cccc(C(F)(F)F)c1"
tgt = "Morganella morganii"
quantitative_result = 32

[[record]]
compound = "N[C@@H](C(=O)N[C@@H]1C(=O)N2C(C(=O)O)=C(C(F)(F)F)CC[C@H]12)c1cccc(F)c1"
tgt = "Morganella morganii"
quantitative_result = 32

[[record]]
compound = "N[C@@H](C(=O)N[C@@H]1C(=O)N2C(C(=O)O)=C(Cl)CS[C@H]12)c1ccccc1 [CEFACLOR ANHYDROUS]"
tgt = "Morganella morganii"
quantitative_result = 128

[[record]]
compound = "CCS(=O)(=O)Nc1cccc([C@@H](N)C(=O)N[C@@H]2C(=O)N3C(C(=O)O)=C(C(F)(F)F)CC[C@H]23)c1"
tgt = "Morganella morganii"
quantitative_result = 16


Field: next compound
Name the recorded MIC for Cc1cccc([C@@H](N)C(=O)N[C@@H]2C(=O)N3C(C(=O)O)=C(C(F)(F)F)CC[C@H]23)c1 .
8
